molecular target: Neu5Ac(a2-3)GalNAc(b1-4)GlcNAc; assay: glycan array binding signal (z-score within array); higher = stronger binding; conditions: glycan notation: IUPAC condensed, linker removed
The sample as a whole holds a higher share of the strongest signals than the screen did.
Property Name: glycan array binding signal (z-score)

Quick one: glycan array binding signal (z-score) for CFEM-CGl (Candida glabrata), Q6FRS0 (protein) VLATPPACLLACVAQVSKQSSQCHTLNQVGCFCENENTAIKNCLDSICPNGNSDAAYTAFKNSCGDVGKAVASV ? -0.449

src = the supplement of paper PMC8728848
